- Test system: HeLa Kyoto
- ASSAY_METHOD_TEXT: solubility in G1/S (NP-40 vs SDS abundance) (log2 ratio); higher = more soluble
- DETAILS: cell cycle stage: G1/S
Classify by measured solubility in G1/S (log2): True if it is equal to or exceeds 0.4, False if it is smaller.

{"columns": ["ITEM_SEQUENCE", "CATEGORY"],
 "data": [
  ["MFPVKVKVEKSELEMAKARNQLDAVLQCLLEKSHMDRERLDEEAGKTPSDTHNKDCSIAATGKRPSARFPHQRRKKRREMDDGLAEGGPQRSNTYVIKLFDRSVDLAQFSENTPLYPICRAWMRNSPSVRERECSPSSPLPPLPEDEEGSEVTNSKSRDVYKLPPPTPPGPPGDACRSRIPSPLQPEMQGTPDDEPSEPEPSPSTLIYRNMQRWKRIRQRWKEASHRNQLRYSESMKILREMYERQ [LIN37]", "True"],
  ["MSAEVETSEGVDESEKKNSGALEKENQMRMADLSELLKEGTKEAHDRAENTQFVKDFLKGNIKKELFKLATTALYFTYSALEEEMERNKDHPAFAPLYFPMELHRKEALTKDMEYFFGENWEEQVQCPKAAQKYVERIHYIGQNEPELLVAHAYTRYMGDLSGGQVLKKVAQRALKLPSTGEGTQFYLFENVDNAQQFKQLYRARMNALDLNMKTKERIVEEANKAFEYNMQIFNELDQAGSTLARETLEDGFPVHDGKGDMRKCPFYAAEQDKGALEGSSCPFRTAMAVLRKPSLQFILAAGVALAAGLLAWYYM [HMOX2]", "True"],
  ["MKKSIGILSPGVALGMAGSAMSSKFFLVALAIFFSFAQVVIEANSWWSLGMNNPVQMSEVYIIGAQPLCSQLAGLSQGQKKLCHLYQDHMQYIGEGAKTGIKECQYQFRHRRWNCSTVDNTSVFGRVMQIGSRETAFTYAVSAAGVVNAMSRACREGELSTCGCSRAARPKDLPRDWLWGGCGDNIDYGYRFAKEFVDARERERIHAKGSYESARILMNLHNNEAGRRTVYNLADVACKCHGVSGSCSLKTCWLQLADFRKVGDALKEKYDSAAAMRLNSRGKLVQVNSRFNSPTTQDLVYIDPSPDYCVRNESTGSLGTQGRLCNKTSEGMDGCELMCCGRGYDQFKTVQTERCHCKFHWCCYVKCKKCTEIVDQFVCK [WNT5A]", "False"],
  ["MLRLLASGCARGPGPGVGARPAAGLFHPGRRQSRQASDAPRNQPPSPEFVARPVGVCSMMRLPVQTSPEGLDAAFIGVPLDTGTSNRPGARFGPRRIREESVMLGTVNPSTGALPFQSLMVADLGDVNVNLYNLQDSCRRIQEAYEKIVAAGCIPLTLGGDHTITYPILQAMAKKHGPVGLLHVDAHTDTTDKALGEKLYHGAPFRRCVDEGLLDCKRVVQIGIRGSSTTLDPYRYNRSQGFRVVLAEDCWMKSLVPLMGEVRQQMGGKPIYISFDIDALDPAYAPGTGTPEIAGLTPSQALEIIRGCQGLNVMGCDLVEVSPPYDLSGNTALLAANLLFEMLCALPKVTTV [AGMAT]", "False"],
  ["MNRVLCAPAAGAVRALRLIGWASRSLHPLPGSRDRAHPAAEEEDDPDRPIEFSSSKANPHRWSVGHTMGKGHQRPWWKVLPLSCFLVALIIWCYLREESEADQWLRQVWGEVPEPSDRSEEPETPAAYRART [CCSMST1]", "False"]
]}

----------
- Tested on: HeLa Kyoto
- ASSAY_METHOD_TEXT: thermal stability score vs G1/S (z-score of summed log2 fold changes over temperatures); higher = more thermally stable than in G1/S
- DETAILS: cell cycle stage: early G1 (4.5 h after nocodazole release)
Below, each entry is listed with its recorded thermal stability score.

{"columns": ["ITEM_SEQUENCE", "thermal stability score"],
 "data": [
  ["MLGAWAVEGTAVALLRLLLLLLPPAIRGPGLGVAGVAGAAGAGLPESVIWAVNAGGEAHVDVHGIHFRKDPLEGRVGRASDYGMKLPILRSNPEDQILYQTERYNEETFGYEVPIKEEGDYVLVLKFAEVYFAQSQQKVFDVRLNGHVVVKDLDIFDRVGHSTAHDEIIPMSIRKGKLSVQGEVSTFTGKLYIEFVKGYYDNPKVCALYIMAGTVDDVPKLQPHPGLEKKEEEEEEEEYDEGSNLKKQTNKNRVQSGPRTPNPYASDNSSLMFPILVAFGVFIPTLFCLCRL [MLEC]", 1.83],
  ["MALAARLWRLLPFRRGAAPGSRLPAGTSGSRGHCGPCRFRGFEVMGNPGTFKRGLLLSALSYLGFETYQVISQAAVVHATAKVEEILEQADYLYESGETEKLYQLLTQYKESEDAELLWRLARASRDVAQLSRTSEEEKKLLVYEALEYAKRALEKNESSFASHKWYAICLSDVGDYEGIKAKIANAYIIKEHFEKAIELNPKDATSIHLMGIWCYTFAEMPWYQRRIAKMLFATPPSSTYEKALGYFHRAEQVDPNFYSKNLLLLGKTYLKLHNKKLAAFWLMKAKDYPAHTEEDKQIQTEAAQLLTSFSEKN [RMDN1]", -0.229],
  ["MATKGGTVKAASGFNAMEDAQTLRKAMKGLGTDEDAIISVLAYRNTAQRQEIRTAYKSTIGRDLIDDLKSELSGNFEQVIVGMMTPTVLYDVQELRRAMKGAGTDEGCLIEILASRTPEEIRRISQTYQQQYGRSLEDDIRSDTSFMFQRVLVSLSAGGRDEGNYLDDALVRQDAQDLYEAGEKKWGTDEVKFLTVLCSRNRNHLLHVFDEYKRISQKDIEQSIKSETSGSFEDALLAIVKCMRNKSAYFAEKLYKSMKGLGTDDNTLIRVMVSRAEIDMLDIRAHFKRLYGKSLYSFIKGDTSGDYRKVLLVLCGGDD [ANXA4]", 5.77]
]}

----------
- Test system: HeLa Kyoto
- ASSAY_METHOD_TEXT: solubility in G1/S (NP-40 vs SDS abundance) (log2 ratio); higher = more soluble
- DETAILS: cell cycle stage: G1/S
Classification field: Satisfied = solubility in G1/S (log2) at or over 0.3; Not satisfied = solubility in G1/S (log2) under 0.3.

{"columns": ["SUBSTANCE", "TESTED_ON", "CATEGORY"],
 "data": [
  ["MKLLSLVAVVGCLLVPPAEANKSSEDIRCKCICPPYRNISGHIYNQNVSQKDCNCLHVVEPMPVPGHDVEAYCLLCECRYEERSTTTIKVIIVIYLSVVGALLLYMAFLMLVDPLIRKPDAYTEQLHNEEENEDARSMAAAAASLGGPRANTVLERVEGAQQRWKLQVQEQRKTVFDRHKMLS [TMEM9]", "HeLa Kyoto", "Not satisfied"],
  ["MAASGESGTSGGGGSTEEAFMTFYSEVKQIEKRDSVLTSKNQIERLTRPGSSYFNLNPFEVLQIDPEVTDEEIKKRFRQLSILVHPDKNQDDADRAQKAFEAVDKAYKLLLDQEQKKRALDVIQAGKEYVEHTVKERKKQLKKEGKPTIVEEDDPELFKQAVYKQTMKLFAELEIKRKEREAKEMHERKRQREEEIEAQEKAKREREWQKNFEESRDGRVDSWRNFQANTKGKKEKKNRTFLRPPKVKMEQRE [DNAJC8]", "HeLa Kyoto", "Satisfied"],
  ["MGREFGNLTRMRHVISYSLSPFEQRAYPHVFTKGIPNVLRRIRESFFRVVPQFVVFYLIYTWGTEEFERSKRKNPAAYENDK [UQCRQ]", "HeLa Kyoto", "Not satisfied"],
  ["MATSLDFKTYVDQACRAAEEFVNIYYETMDKRRRALTRLYLDKATLIWNGNAVSGLDALNNFFDTLPSSEFQVNMLDCQPVHEQATQSQTTVLVVTSGTVKFDGNKQHFFNQNFLLTAQSTPNNTVWKIASDCFRFQDWSSS [NXT2]", "HeLa Kyoto", "Not satisfied"],
  ["MAQRMTTQLLLLLVWVAVVGEAQTRIAWARTELLNVCMNAKHHKEKPGPEDKLHEQCRPWRKNACCSTNTSQEAHKDVSYLYRFNWNHCGEMAPACKRHFIQDTCLYECSPNLGPWIQQVDQSWRKERVLNVPLCKEDCEQWWEDCRTSYTCKSNWHKGWNWTSGFNKCAVGAACQPFHFYFPTPTVLCNEIWTHSYKVSNYSRGSGRCIQMWFDPAQGNPNEEVARFYAAAMSGAGPWAAWPFLLSLALMLLWLLS [FOLR1]", "HeLa Kyoto", "Not satisfied"],
  ["MPEESSPRRTPQSIPYQDLPHLVNADGQYLFCRYWKPTGTPKALIFVSHGAGEHSGRYEELARMLMGLDLLVFAHDHVGHGQSEGERMVVSDFHVFVRDVLQHVDSMQKDYPGLPVFLLGHSMGGAIAILTAAERPGHFAGMVLISPLVLANPESATTFKVLAAKVLNLVLPNLSLGPIDSSVLSRNKTEVDIYNSDPLICRAGLKVCFGIQLLNAVSRVERALPKLTVPFLLLQGSADRLCDSKGAYLLMELAKSQDKTLKIYEGAYHVLHKELPEVTNSVFHEINMWVSQRTATAGTASPP [MGLL]", "HeLa Kyoto", "Satisfied"],
  ["HDGFRP2", "HeLa Kyoto", "Not satisfied"],
  ["MSSLIRRVISTAKAPGAIGPYSQAVLVDRTIYISGQIGMDPSSGQLVSGGVAEEAKQALKNMGEILKAAGCDFTNVVKTTVLLADINDFNTVNEIYKQYFKSNFPARAAYQVAALPKGSRIEIEAVAIQGPLTTASL [HRSP12]", "HeLa Kyoto", "Not satisfied"],
  ["MILQRLFRFSSVIRSAVSVHLRRNIGVTAVAFNKELDPIQKLFVDKIREYKSKRQTSGGPVDASSEYQQELERELFKLKQMFGNADMNTFPTFKFEDPKFEVIEKPQA [ATP5J]", "HeLa Kyoto", "Not satisfied"],
  ["MTDDKDVLRDVWFGRIPTCFTLYQDEITEREAEPYYLLLPRVSYLTLVTDKVKKHFQKVMRQEDISEIWFEYEGTPLKWHYPIGLLFDLLASSSALPWNITVHFKSFPEKDLLHCPSKDAIEAHFMSCMKEADALKHKSQVINEMQKKDHKQLWMGLQNDRFDQFWAINRKLMEYPAEENGFRYIPFRIYQTTTERPFIQKLFRPVAADGQLHTLGDLLKEVCPSAIDPEDGEKKNQVMIHGIEPMLETPLQWLSEHLSYPDNFLHISIIPQPTD [ATG5]", "HeLa Kyoto", "Satisfied"],
  ["MKMKLFQTICRQLRSSKFSVESAALVAFSTSSYSCGRKKKVNPYEEVDQEKYSNLVQSVLSSRGVAQTPGSVEEDALLCGPVSKHKLPNQGEDRRVPQNWFPIFNPERSDKPNASDPSVPLKIPLQRNVIPSVTRVLQQTMTKQQVFLLERWKQRMILELGEDGFKEYTSNVFLQGKRFHEALESILSPQETLKERDENLLKSGYIESVQHILKDVSGVRALESAVQHETLNYIGLLDCVAEYQGKLCVIDWKTSEKPKPFIQSTFDNPLQVVAYMGAMNHDTNYSFQVQCGLIVVAYKDGSPAHPHFMDAELCSQYWTKWLLRLEEYTEKKKNQNIQKPEYSE [MGME1]", "HeLa Kyoto", "Satisfied"],
  ["MRLTPRALCSAAQAAWRENFPLCGRDVARWFPGHMAKGLKKMQSSLKLVDCIIEVHDARIPLSGRNPLFQETLGLKPHLLVLNKMDLADLTEQQKIMQHLEGEGLKNVIFTNCVKDENVKQIIPMVTELIGRSHRYHRKENLEYCIMVIGVPNVGKSSLINSLRRQHLRKGKATRVGGEPGITRAVMSKIQVSERPLMFLLDTPGVLAPRIESVETGLKLALCGTVLDHLVGEETMADYLLYTLNKHQRFGYVQHYGLGSACDNVERVLKSVAVKLGKTQKVKVLTGTGNVNIIQPNYPAAARDFLQTFRRGLLGSVMLDLDVLRGHPPAETLP [MTG1]", "HeLa Kyoto", "Not satisfied"],
  ["MAAAVVLAAGLRAARRAVAATGVRGGQVRGAAGVTDGNEVAKAQQATPGGAAPTIFSRILDKSLPADILYEDQQCLVFRDVAPQAPVHFLVIPKKPIPRISQAEEEDQQLLGHLLLVAKQTAKAEGLGDGYRLVINDGKLGAQSVYHLHIHVLGGRQLQWPPG [HINT2]", "HeLa Kyoto", "Satisfied"]
]}
